Origin of values: ChEMBL document CHEMBL4041542

test: Selectivity index, ratio of IC50 for CHO cells to IC50 for chloroquine-sensitive Plasmodium falciparum NF54; format: toxicity; conditions: hamster, read-out: Ratio IC50
Please use Fulfilled for selectivity ratio under 40 and Not fulfilled for everything else, ties included.

Enquiry: Please let me know if COc1cccc(OC(=O)/C(CCC=C(C)C)=C2\[C@@H](OC(C)=O)C[C@@]3(C)[C@H]2C[C@@H](O)[C@H]2[C@@]4(C)CC[C@@H](O)[C@@H](C)[C@@H]4CC[C@@]23C)c1 shows selectivity ratio below 40.
Return: Not fulfilled

Enquiry: Please let me know if CC(=O)O[C@H]1C[C@@]2(C)[C@@H](C[C@@H](O)[C@H]3[C@@]4(C)CC[C@@H](O)[C@@H](C)[C@@H]4CC[C@@]32C)/C1=C(\CCC=C(C)C)C(=O)Oc1cccc(Cl)c1 shows selectivity ratio below 40.
Return: Not fulfilled

Enquiry: Please let me know if CC(=O)O[C@H]1C[C@@]2(C)[C@@H](C[C@@H](O)[C@H]3[C@@]4(C)CC[C@@H](O)[C@@H](C)[C@@H]4CC[C@@]32C)/C1=C(\CCC=C(C)C)C(=O)Oc1cccc(F)c1 shows selectivity ratio below 40.
Return: Fulfilled

Enquiry: Please let me know if CC(=O)O[C@H]1C[C@@]2(C)[C@@H](C[C@@H](O)[C@H]3[C@@]4(C)CC[C@@H](O)[C@@H](C)[C@@H]4CC[C@@]32C)/C1=C(\CCC=C(C)C)C(=O)Oc1ccc(Cl)cc1 shows selectivity ratio below 40.
Return: Fulfilled

Enquiry: Please let me know if CC(=O)O[C@H]1C[C@@]2(C)[C@@H](C[C@@H](O)[C@H]3[C@@]4(C)CC[C@@H](O)[C@@H](C)[C@@H]4CC[C@@]32C)/C1=C(\CCC=C(C)C)C(=O)Oc1ccc(Cl)cc1Cl shows selectivity ratio below 40.
Return: Fulfilled

Enquiry: Please let me know if CC(=O)O[C@H]1C[C@@]2(C)[C@@H](C[C@@H](O)[C@H]3[C@@]4(C)CC[C@@H](O)[C@@H](C)[C@@H]4CC[C@@]32C)/C1=C(\CCC=C(C)C)C(=O)Oc1ccc(Br)cc1 shows selectivity ratio below 40.
Return: Not fulfilled

Enquiry: Please let me know if CC(=O)O[C@H]1C[C@@]2(C)[C@@H](C[C@@H](O)[C@H]3[C@@]4(C)CC[C@@H](O)[C@@H](C)[C@@H]4CC[C@@]32C)/C1=C(\CCC=C(C)C)C(=O)Oc1ccc2ccccc2c1 shows selectivity ratio below 40.
Return: Not fulfilled
